Target: T1, streptavidin (UniProt P22629 25-183)
T1 construct: streptavidin; Commercial streptavidin is usually a homotetramer of a processed (core) form; also called SA; source: bought: Wako Pure Chemical Industries (ELISA)
T1 sequence (P22629 25-183): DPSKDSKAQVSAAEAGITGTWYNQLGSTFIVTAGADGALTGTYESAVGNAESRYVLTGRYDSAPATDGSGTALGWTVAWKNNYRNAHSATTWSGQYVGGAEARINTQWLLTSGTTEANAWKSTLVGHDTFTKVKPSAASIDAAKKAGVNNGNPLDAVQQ
Experiment: fluorescence polarisation; 4 pmol FAM-labelled peptide with various concentrations of the protein; 50 mM Tris-HCl pH 8.0, 150 mM NaCl, 1 mM TCEP-NaOH, 30 °C; Klotz plot, non-linear least squares fit
Conditions: both partners purified
Result type: pKd
Answer as the number alone; pKd is minus log10 of concentration in mol/L.

Briefly, pKd measured for KAMWCQYHPQNCYKM (5/6-FAM on the N-terminal lysine (K-5/6-FAM); Sal-conjugated Cys (C*) at both cysteines; C-terminal amide (NH2), Linear peptide; both cysteines are alkylated with 4-acetamidosalicylic acid (thioether); also called Sal-conjugated peptide; Sal-conjugated linear peptide; source: synthetic peptide (solid phase synthesis, HPLC), then conjugated with Sal-IA and purified by reverse-phase HPLC) : 6.74
